- Test system: NIH3T3
- protocol.description: Cytotoxic Profiling of Annotated Libraries Using Quantitative High-Throughput Screening (AID 1296008); further: on the % scale 0 is the no-effect control and ±100 the full control effect; nearly all actives have a fitted effect of over 60% in size
- test.conditions: Five cell lines viability, CellTiter-Glo ATP luminescence, 48-72 h; active compounds read low
Inconclusive results are not listed. Activity calls are given as the source filed them. The call rests on the fitted dose curve; in most records, active means well fitted inhibition curve with a large enough effect; inconclusive means small, poorly fitted or top-dose-only effect; inactive means flat fitted curve, though single readings scatter.
Attribute: max response

molecule: CC1=C(C(=O)O[C@@H]2O[C@H](COC3OCC(O)C(O)C3O)[C@@H](O)[C@H](O)[C@H]2O)C(C)(C)CCC1 (stereo partly drawn)
max response: -7.14% (inactive)
//
molecule: CC(C)=C/C=C\[C@H](C)[C@H]1CC[C@]2(C)C[C@@H]3C(C)=CC(=O)C3/C(CO)=C\C[C@@H]12 (stereo partly drawn)
max response: 3.13% (inactive)
//
molecule: C[C@@H]1CCC2C(C)(C)[C@H](O)CC[C@]2(C)[C@@]12Cc1c(O)cc3c(c1O2)CNC3=O (stereo partly drawn)
max response: -63% (inactive)
//
molecule: CC1(C)CCC2(C(=O)OC3OCC(O)C(O)C3O)CCC3(C)C(=CCC4C5(C)CC(O)C(OC6OC(COC7OCC(O)C(O)C7O)C(O)C(O)C6O)C(C)(C)C5CCC43C)C2C1 (stereo not drawn)
max response: -1.51% (inactive)
//
molecule: CCOCc1nc2c(N)nc3ccccc3c2n1CC(C)(C)O
max response: -2.04% (inactive)
//
molecule: CC1CCC2(C(=O)O)CCC3(C)C(=CCC4C5(C)CCC(O)C(C)(CO)C5CCC43C)C2C1(C)O (stereo not drawn)
max response: 1.81% (inactive)
//
molecule: N#Cc1cnc2cnc(NCc3cccnc3)cc2c1Nc1ccc(F)c(Cl)c1
max response: -8.77% (inactive)
//
molecule: C=C1CCC2C(C)(C(=O)OC)CCCC2(C)C1CCC(C)CC(=O)O (stereo not drawn)
max response: 2.98% (inactive)

###

Attribute: max response
- System: NIH3T3
- protocol.description: Cytotoxic Profiling of Annotated Libraries Using Quantitative High-Throughput Screening (AID 1296008); further: on the % scale 0 is the no-effect control and ±100 the full control effect; nearly all actives have a fitted effect of over 60% in size
- test.conditions: Five cell lines viability, CellTiter-Glo ATP luminescence, 48-72 h; active compounds read low
Inconclusive results are not listed. Where a SMILES comes first, the peptide text is derived from it. The star is where a group is joined. AFC = O=c1cc(C(F)(F)F)c2ccc(N*)cc2o1
value.kind: max response (%)

compound: CC(=O)NC1C(OC(C)(C)C2CCC3(C)C=C(C4CCC5C4(C)CC(O)C4OC(C(C)(C)O)CCC45C)CCC3O2)OC(CO)C(O)C1O (stereo unspecified)
value.kind: max response
u: %
assay.value: -10.4
//
compound: CC1=CC2/C=C(\C)CC[C@@H](O)[C@@H](O)[C@@H]3O[C@@H]3C(=O)[C@]23C(=O)N[C@@H](CC(C)C)[C@@H]3[C@@H]1C (stereo partly specified)
value.kind: max response
u: %
assay.value: 1.23
//
compound: CC(O)CO[C@@H]1O[C@H](CO)[C@@H](O)[C@H](O)[C@H]1O (stereo partly specified)
value.kind: max response
u: %
assay.value: 0.151
//
compound: O=C(O)c1ccc(OC2OC(CO)C(O)C(O)C2O)cc1 (stereo unspecified)
value.kind: max response
u: %
assay.value: 1.85
//
compound: C/C=C/C=C/C(=O)N1CC[C@]23c4ccccc4N[C@H]4N(C)c5cccc6c5[C@@]42CCN([C@H]6C2OC2(C)C)[C@H]13 (stereo partly specified)
value.kind: max response
u: %
assay.value: 3.9
//
compound: CC1CC(=O)C2=C(CCC3(O)C(O)c4c(O)cccc4C(=O)C23O)C1 (stereo unspecified)
value.kind: max response
u: %
assay.value: 1.72
//
compound: CC1OC(OC2C(OC3C(O[C@H]4CC[C@@]5(C)C(CC[C@]6(C)C5C(=O)C=C5C7CC(C)(C)CC(O)[C@]7(C)CC[C@]56C)C4(C)C)OC(C(=O)O)C(O)C3O)OCC(O)C2O)C(O)C(O)C1O (stereo partly specified)
value.kind: max response
u: %
assay.value: -3.29
//
compound: Cc1noc(=O)c2ccc(NC(=O)C(O)(CC(C)(C)c3cccc4c3OCC4)C(F)(F)F)cc12 (stereo unspecified)
value.kind: max response
u: %
assay.value: -1.29
//
compound: O=C1CSc2ccccc2N1Cc1cccc(C(F)(F)F)c1
value.kind: max response
u: %
assay.value: 4.03
//
compound: CC1(CCOC2OC(CO)C(O)C(O)C2O)CCC23OC2(C1)C(O)CC1C(C)(C(=O)O)CCCC13C (stereo unspecified)
value.kind: max response
u: %
assay.value: 0.419
//
compound: Cn1c(=O)cc(N2CCCC(N)C2)n(Cc2cc(F)ccc2C#N)c1=O (stereo unspecified)
value.kind: max response
u: %
assay.value: -2.76
//
compound: C=C1C(=O)OC2C1C(O)CC1(C)C(O)CCC(C=O)C21 (stereo unspecified)
value.kind: max response
u: %
assay.value: -0.523
//
compound: C=C1CCC2C(C(C)(C)O)CCC2(C)CC(O)C(=C)CCC1O (stereo unspecified)
value.kind: max response
u: %
assay.value: -9.68
//
compound: CN(C)CCn1cc(S(=O)(=O)c2cccc(F)c2)c2cccnc21
value.kind: max response
u: %
assay.value: -4.92
//
compound: Cc1ccccc1NC(=O)Nc1ccc(CC(=O)N(C)[C@@H](CC(C)C)C(=O)NCC[C@H](NC(=O)[C@@H]2CCCN2S(=O)(=O)c2cc(Cl)cc(Cl)c2)C(=O)O)cc1
value.kind: max response
u: %
assay.value: -5.85
//
compound: OC/C=C/c1ccc(O[C@@H]2O[C@H](CO)[C@@H](O)[C@H](O)[C@H]2O)cc1
value.kind: max response
u: %
assay.value: -0.785
//
compound: C=C(C(=O)O)C1CC(O)C2(C)CCCC(=C)C2C1 (stereo unspecified)
value.kind: max response
u: %
assay.value: 2.65
//
compound: COc1ccc(/C=C\C(=O)O)c(O[C@@H]2O[C@H](CO)[C@@H](O)[C@H](O)[C@H]2O)c1
value.kind: max response
u: %
assay.value: 0.681
//
compound: CC(=O)N[C@@H](Cc1c[nH]c2ccccc12)C(=O)N[C@@H](CCC(=O)O)C(=O)N[C@@H](Cc1cnc[nH]1)C(=O)N[C@@H](CC(=O)O)C(=O)Nc1ccc2c(C(F)(F)F)cc(=O)oc2c1 (Ac-WEHD-{AFC})
value.kind: max response
u: %
assay.value: 0.286
//
compound: C=C1C(OC(C)=O)CCC2(C)CC3(OC)OC(=O)C(C)=C3CC12 (stereo unspecified)
value.kind: max response
u: %
assay.value: 0.22
//
compound: Cc1ccccc1C#Cc1ccc(CCC(=O)O)cc1
value.kind: max response
u: %
assay.value: -10.2
//
compound: C[C@@H]1O[C@@H](O[C@H]2[C@H](O)[C@@H](O)[C@H](OC[C@H]3O[C@@H](OC(=O)[C@]45CCC(C)(C)C[C@H]4C4=CCC6[C@@]7(C)CC[C@H](O[C@@H]8OC[C@H](O)[C@H](O[C@@H]9O[C@H](CO)[C@@H](O)[C@H](O)[C@H]9O)[C@H]8O)[C@@](C)(CO)C7CC[C@@]6(C)[C@]4(C)CC5)[C@H](O)[C@@H](O)[C@@H]3O)O[C@@H]2CO)[C@H](O)[C@H](O)[C@H]1O (stereo partly specified)
value.kind: max response
u: %
assay.value: -6.93
//
compound: COc1c2ccoc2cc2oc(CO[C@@H]3O[C@H](CO)[C@@H](O)[C@H](O)[C@H]3O)cc(=O)c12
value.kind: max response
u: %
assay.value: -8.92
//
compound: C[C@@H]1C[C@@H]([C@@H](O)C(C)(C)O)O[C@H]2C[C@@]3(C)C(=C12)C[C@H](O)[C@H]1[C@@]2(C)CCC(=O)C(C)(C)C2CC[C@@]13C (stereo partly specified)
value.kind: max response
u: %
assay.value: -0.489
//
compound: CC[C@@H](O)C[C@@H]1C(C)=C[C@@H]2CCCC[C@@H]2[C@@]1(C)C(=O)O
value.kind: max response
u: %
assay.value: -7.4
//
compound: CN(C)C(=O)NC1CCC(CCN2CCN(c3cccc(Cl)c3Cl)CC2)CC1 (stereo unspecified)
value.kind: max response
u: %
assay.value: -6.34
//
compound: COc1cc2oc(-c3ccc(O)cc3O)cc2c(OC)c1CC=C(C)C
value.kind: max response
u: %
assay.value: 2.22
//
compound: C=C1C[C@]23C[C@H]1CC[C@H]2[C@@]1(C)CCC[C@@]2(C)C(=O)O[C@@H]([C@@H]3O)[C@@H]12
value.kind: max response
u: %
assay.value: -6.16
//
compound: C=C(CCC1=C(C)[C@H]2[C@H](CC3[C@@H]4CC=C5C[C@@H](O)C[C@@H](O)[C@]5(C)C4[C@H](O)C[C@@]32C)O1)CO[C@@H]1O[C@H](CO)[C@@H](O)[C@H](O)[C@H]1O (stereo partly specified)
value.kind: max response
u: %
assay.value: 0.743
//
compound: CCN1CCN(Cc2ccc(Nc3ncc(F)c(-c4cc(F)c5nc(C)n(C(C)C)c5c4)n3)nc2)CC1
value.kind: max response
u: %
assay.value: 1.34
//
compound: NC(=O)c1csc(C2OC(CO)C(O)C2O)n1 (stereo unspecified)
value.kind: max response
u: %
assay.value: -7.35
